This collection of values is drawn from patent US20230312605A1.

Quick reference: pEC50 of the listed items.
- test_system: recombinant DYRK1A kinase (Homo sapiens (Human), UniProt Q13627)
- assay_text: DYRK1A kinase assay (Ser/Thr 18 peptide Z-lyte FRET assay)
- Format: biochemical
- test_context: recombinant DYRK1A 0.25 µg/mL, ATP 15 µM, Ser/Thr peptide 18 4 µM, one hour at room temperature; table head prints EC50, method says IC50
Kindly note that pEC50 refers to -log10 of the concentration in mol/L and answer with the value alone.

Result for Cc1nc2nc(-c3ccn4nc(N[C@H]5CC[C@@H](OC(F)(F)F)CC5)ncc34)cnc2n1CC(F)F [Compound 1971] , tested on recombinant DYRK1A kinase (Homo sapiens (Human), UniProt Q13627), pEC50: 6.42

Result for Cc1nc2ccc(-c3ccn4nc(N[C@@H]5COC[C@H]5O)ncc34)nc2n1CC(F)F [Compound 1906] , tested on recombinant DYRK1A kinase (Homo sapiens (Human), UniProt Q13627), pEC50: 8.40

Result for c1cnc2cc(-c3ccn4nc(NC5CC6(COC6)C5)ncc34)ccc2n1 [Compound 1418] , tested on recombinant DYRK1A kinase (Homo sapiens (Human), UniProt Q13627), pEC50: 7.96
